The following molecules are shown together with reported EC50 values.
# Test system: HUVEC
# assay notes: Tested for inhibition of the human umbilical vein endothelial cell (HUVEC) proliferation
assay readout: EC50 (nM)

> print(dat)
                                   molecule  value.observed
1  CO[C@@H]1[C@H](OC(N)=O)CC[C@]2(CO2)[C@H]1/C(C)=C/CC=C(C)C             490
2  CO[C@@H]1[C@H](OC(C)=O)CC[C@]2(CO2)[C@H]1/C(C)=N/OCc1ccccc1             450
3  CO[C@@H]1[C@H](OC(=O)/C=C/C=C/C=C/C=C/C(=O)O)CC[C@]2(CO2)[C@H]1[C@@]1(C)O[C@@H]1CC=C(C)C [FUMAGILLIN]            0.82
4  CO[C@@H]1[C@H](OC(N)=O)CC[C@]2(CO2)[C@H]1[C@@]1(C)O[C@@H]1CC=C(C)C            0.65
5  CO[C@@H]1[C@H](OC(C)=O)CC[C@]2(CO2)[C@H]1[C@@]1(C)O[C@@H]1CC=C(C)C               3
6  CO[C@@H]1[C@H](OC(N)=O)CC[C@]2(CO2)[C@H]1/C(C)=N/OCc1ccccc1              88

----------
# target under test: Methionine aminopeptidase 2 (Homo sapiens, UniProt P50579)
# Sequence (P50579 whole entry): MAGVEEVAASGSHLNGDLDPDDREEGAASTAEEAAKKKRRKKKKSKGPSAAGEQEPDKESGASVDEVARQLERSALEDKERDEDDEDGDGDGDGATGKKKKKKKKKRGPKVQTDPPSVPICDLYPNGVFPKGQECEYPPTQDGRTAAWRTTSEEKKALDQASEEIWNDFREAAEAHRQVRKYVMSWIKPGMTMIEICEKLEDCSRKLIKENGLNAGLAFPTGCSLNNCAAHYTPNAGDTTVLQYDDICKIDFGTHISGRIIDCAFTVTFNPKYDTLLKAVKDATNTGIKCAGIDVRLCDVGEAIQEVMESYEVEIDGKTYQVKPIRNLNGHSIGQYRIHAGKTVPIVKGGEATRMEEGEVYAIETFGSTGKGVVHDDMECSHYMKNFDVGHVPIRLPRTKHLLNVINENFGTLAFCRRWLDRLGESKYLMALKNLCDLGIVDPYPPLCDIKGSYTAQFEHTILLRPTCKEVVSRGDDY
assay readout: IC50 (nM)

> print(dat)
                         compound.structure  assay.readout  unit.info  value.observed
1  CO[C@@H]1[C@H](OC(=O)/C=C/C=C/C=C/C=C/C(=O)O)CC[C@]2(CO2)[C@H]1[C@@]1(C)O[C@@H]1CC=C(C)C           IC50         nM            0.63
